Answer each item with its documented apparent Kd (screen).
system tested: T1, TNFR1 (Homo sapiens, UniProt P19438)
T1 chain: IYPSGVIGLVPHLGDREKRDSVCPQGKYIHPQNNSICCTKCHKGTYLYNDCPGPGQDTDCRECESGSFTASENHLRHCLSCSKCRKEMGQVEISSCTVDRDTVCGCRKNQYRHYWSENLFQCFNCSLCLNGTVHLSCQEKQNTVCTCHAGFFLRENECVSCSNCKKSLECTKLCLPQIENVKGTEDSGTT
experiment description: yeast display SC50
Field: numeric (nM). Do not append units.

Data request: Identify measured apparent Kd (screen) corresponding to K103E (designed binder) MTLQELLREEALRRAEAEAFRYALELLAEKFPEQKEYLLDLAEEIESQIRSLSGVDVEDVRKFLDKEWAWVKELLAEHPAELAEVEAARAARLAELRAEVEAEVAA
Data returned: 0.79

Data request: Answer with the recorded apparent Kd (screen) for the binder listed here: Y37Q (designed binder) MTLQELLREEALRRAEAEAFRYALELLAEKFPEQKEQLLDLAEEIESQIRSLSGVDVEDVRKFLDKEWAWVKELLAEHPAELAEVEAARAARLAELRAEVEAKVAA
Data returned: 8.56

Data request: Give apparent Kd (screen) for E73R (designed binder) MTLQELLREEALRRAEAEAFRYALELLAEKFPEQKEYLLDLAEEIESQIRSLSGVDVEDVRKFLDKEWAWVKRLLAEHPAELAEVEAARAARLAELRAEVEAKVAA
Data returned: 0.539

Data request: Give the reported apparent Kd (screen) for this binder. L27K (designed binder) MTLQELLREEALRRAEAEAFRYALELKAEKFPEQKEYLLDLAEEIESQIRSLSGVDVEDVRKFLDKEWAWVKELLAEHPAELAEVEAARAARLAELRAEVEAKVAA
Data returned: 0.49
